Where these numbers come from: the supplement of paper PMC10065799

- System: AncSZ;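 also: 11-residue human phosphosite peptides and single-mutation variants displayed on the E. coli surface, counted by deep sequencing, each peptide's frequency after selection divided by its frequency in the unselected input library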;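 also: frequency after pTyr selection over input frequency; kinase dosed for 20-30% of maximal phosphorylation in three min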
- assay remarks: phosphorylation enrichment, bacterial display (enrichment ratio); higher = better substrate or ligand; peptides without Tyr show the background
Label Met when phosphorylation enrichment is at or above 1; otherwise label Not met.

query sequence	test target	assigned label
KIIATYRLCSE [DNAH3_Y1586_V1583I]	AncSZ	Not met
MRALTYCDLHK [KCNH2_Y827_V822M]	AncSZ	Not met
WNEVGYDDIGG [VCP_Y203_L198W]	AncSZ	Met
CPYNLYAAQLS [HGD_Y40_E42A]	AncSZ	Met
LEIETYRRLLD [KRT12_Y429]	AncSZ	Not met
SGPRRYNIAAL [TTR_Y125_T126N]	AncSZ	Not met
LIDGFYRLTAD [JAK2_Y373_YF]	AncSZ	Met
